Entries and their fold change of Cadaverine concentration values follow.
# Tested on: Klebsiella aerogenes DSM 30053
# measurement_description: fold change of Cadaverine concentration vs plate DMSO controls (fold change (ratio)); higher = more amine produced, active = hit call of the paper (significant change in both replicates, either direction)
# condition: incubation time: 27 h, anaerobic, 37 °C
Counter-ions that a name gives are not always drawn.
API doc: respond with a numeric literal and nothing else, no unit.

Below are worked cases with known answers.
• CS(=O)(=O)Nc1ccc([N+](=O)[O-])cc1Oc1ccccc1 [Nimesulide] (20 µM) = 0.991
• CC(=O)SCC(Cc1ccccc1)C(=O)NCC(=O)OCc1ccccc1 (stereo not drawn) [Racecadotril] (20 µM) = 0.999
• COc1cc(C)c(/C=C/C(C)=C/C=C/C(C)=C/C(=O)O)c(C)c1C [Acitretin] (20 µM) = 1.01
• COc1ccnc(C[S+]([O-])c2nc3cc(OC(F)F)ccc3[nH]2)c1OC (stereo not drawn) [Pantoprazole sodium] (20 µM) = 1.02
• Nc1nc(=O)c2c([nH]1)NC[C@@H](CNc1ccc(C(=O)N[C@@H](CCC(=O)O)C(=O)O)cc1)N2C=O [Folinic acid calcium salt] (20 µM) = 0.999

Query: Looking for the measured fold change of Cadaverine concentration of S=c1[nH]cnc2nc[nH]c12 [Mercaptopurine] (20 µM) , can you help?
Reply: 0.999

Query: Looking for the measured fold change of Cadaverine concentration of NC(CO)C(=O)NNCc1ccc(O)c(O)c1O (stereo not drawn) [Benserazide hydrochloride] (20 µM) , can you help?
Reply: 0.991

Query: Looking for the measured fold change of Cadaverine concentration of N=c1ccn2c(n1)O[C@H]1[C@H](O)[C@@H](CO)O[C@H]12 [Ancitabine hydrochloride] (20 µM) , can you help?
Reply: 0.992

Data origin: the supplement of paper PMC12494721
